# Test system: HSV-2 (333 strain)
# MEASUREMENT PROTOCOL: CPE inhibition assay, HSV-2
# COND: Human alphaherpesvirus 2, HEp-2, 24 h, read-out: HSV-2 IC50
QUANTITY: IC50

State the recorded IC50 for this entry: Nc1nc2c(ncn2COCCO)c(=O)[nH]1
28.5 µM

* * *

# ASSAYED TARGET: HSV-1 gD protein (Human herpesvirus 1, UniProt Q69091)
# Sequence (Q69091 26-394): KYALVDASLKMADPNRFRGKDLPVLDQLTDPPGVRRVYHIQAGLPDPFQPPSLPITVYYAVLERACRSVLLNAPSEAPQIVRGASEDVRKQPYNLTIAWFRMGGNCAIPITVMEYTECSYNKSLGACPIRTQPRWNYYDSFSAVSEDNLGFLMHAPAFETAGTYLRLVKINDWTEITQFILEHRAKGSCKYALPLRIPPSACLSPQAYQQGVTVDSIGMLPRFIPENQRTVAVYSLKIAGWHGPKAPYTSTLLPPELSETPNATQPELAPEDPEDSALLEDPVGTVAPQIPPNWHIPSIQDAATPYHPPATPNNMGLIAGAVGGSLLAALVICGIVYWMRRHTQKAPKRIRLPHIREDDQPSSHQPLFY
pKd: −log10 of the molar value.
QUANTITY: pKd

Which value of pKd has been reported for O=c1c(O)c(-c2cc(O)c(O)c(O)c2)oc2cc(O)cc(O)c12 in the records?
~7.22

The reported measurements were obtained from paper PMC7111628.
